Numbers sourced from patent US20240018502A1.

# experimental.target: plasma purified human complement protein C3 (human) (UniProt P01024)
# Sequence (P01024 23-667, chain 1 of 2): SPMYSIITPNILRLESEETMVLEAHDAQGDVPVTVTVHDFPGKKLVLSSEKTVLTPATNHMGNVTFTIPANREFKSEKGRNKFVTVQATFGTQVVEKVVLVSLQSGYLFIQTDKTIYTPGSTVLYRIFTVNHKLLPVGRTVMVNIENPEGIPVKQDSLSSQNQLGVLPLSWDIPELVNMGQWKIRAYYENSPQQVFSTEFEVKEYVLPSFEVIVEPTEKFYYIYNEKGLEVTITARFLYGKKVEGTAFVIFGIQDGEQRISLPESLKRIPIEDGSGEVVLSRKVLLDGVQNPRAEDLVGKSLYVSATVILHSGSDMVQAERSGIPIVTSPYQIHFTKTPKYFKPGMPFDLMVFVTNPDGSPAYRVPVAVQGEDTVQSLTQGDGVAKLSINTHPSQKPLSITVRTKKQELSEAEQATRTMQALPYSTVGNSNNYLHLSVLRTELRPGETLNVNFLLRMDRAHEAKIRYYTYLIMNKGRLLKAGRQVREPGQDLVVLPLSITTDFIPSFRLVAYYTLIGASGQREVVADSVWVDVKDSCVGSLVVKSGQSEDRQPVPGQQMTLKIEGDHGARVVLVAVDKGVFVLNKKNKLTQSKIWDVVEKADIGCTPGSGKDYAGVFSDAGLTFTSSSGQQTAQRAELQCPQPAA
# Sequence (P01024 672-1663, chain 2 of 2): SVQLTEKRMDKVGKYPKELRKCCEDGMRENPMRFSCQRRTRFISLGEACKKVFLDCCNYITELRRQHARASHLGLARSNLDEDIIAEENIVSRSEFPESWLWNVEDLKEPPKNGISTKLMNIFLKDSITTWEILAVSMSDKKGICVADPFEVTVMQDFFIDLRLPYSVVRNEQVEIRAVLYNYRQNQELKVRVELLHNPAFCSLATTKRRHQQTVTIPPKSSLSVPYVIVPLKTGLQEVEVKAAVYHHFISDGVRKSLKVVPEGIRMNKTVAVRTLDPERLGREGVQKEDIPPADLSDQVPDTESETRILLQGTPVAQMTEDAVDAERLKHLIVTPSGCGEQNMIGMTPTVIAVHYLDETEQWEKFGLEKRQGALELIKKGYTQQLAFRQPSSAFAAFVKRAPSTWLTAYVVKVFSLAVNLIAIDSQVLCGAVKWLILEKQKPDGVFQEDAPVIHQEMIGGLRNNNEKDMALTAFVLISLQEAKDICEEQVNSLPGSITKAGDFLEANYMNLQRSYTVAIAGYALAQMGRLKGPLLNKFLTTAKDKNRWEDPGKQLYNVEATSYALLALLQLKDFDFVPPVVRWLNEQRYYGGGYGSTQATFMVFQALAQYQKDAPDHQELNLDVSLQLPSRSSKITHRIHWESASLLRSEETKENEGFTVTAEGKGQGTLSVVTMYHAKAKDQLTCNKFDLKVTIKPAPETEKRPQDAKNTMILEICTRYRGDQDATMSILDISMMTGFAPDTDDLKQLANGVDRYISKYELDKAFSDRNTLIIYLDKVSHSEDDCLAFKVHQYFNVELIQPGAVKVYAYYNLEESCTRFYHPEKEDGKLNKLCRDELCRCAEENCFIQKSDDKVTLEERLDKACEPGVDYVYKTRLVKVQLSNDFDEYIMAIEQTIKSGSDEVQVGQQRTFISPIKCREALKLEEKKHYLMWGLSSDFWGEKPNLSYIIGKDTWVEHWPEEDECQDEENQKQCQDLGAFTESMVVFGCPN
# procedure.details: cell-based or functional assay
measurement.name: EC50 hC3 cleavage (nM)
Field: numeric (nM). Do not append units.

>>> reading("MTSP-1 protease domain I41A/F97G/ins97aM/T98L/C122S (enzyme) VVGGTDADEGEWPWQVSLHALGQGHACGASLISPNWLVSAAHCYIDDRGFRYSDPTQWTAFLGLHDQSQRSAPGVQERRLKRIISHPFFNDGMLFDYDIALLELEKPAEYSSMVRPISLPDASHVFPAGKAIWVTGWGHTQYGGTGALILQKGEIRVINQTTCENLLPQQITPRMMCVGFLSGGVDSCQGDSGGPLSSVEADGRIFQAGVVSWGDGCAQRNKPGVYTRLPLFRDWIKENTGV")
40.1

Here is another binder to look at.
Looking up MTSP-1 protease domain I41S/S90P/ins97aV/C122S/Y146E/Q192N/D217V (enzyme) VVGGTDADEGEWPWQVSLHALGQGHSCGASLISPNWLVSAAHCYIDDRGFRYSDPTQWTAFLGLHDQSQRSAPGVQERRLKRIIPHPFFNDFVTFDYDIALLELEKPAEYSSMVRPISLPDASHVFPAGKAIWVTGWGHTQEGGTGALILQKGEIRVINQTTCENLLPQQITPRMMCVGFLSGGVDSCNGDSGGPLSSVEADGRIFQAGVVSWGVGCAQRNKPGVYTRLPLFRDWIKENTGV , I see its EC50 hC3 cleavage listed as 6.47
